ASSAY NOTES: Cytotoxicity against mouse B16F10 cells assessed as cell viability at 48 uM after 72 hrs by MTT assay (reference value: 99.6 +/- 3.5%)
Type: cell-based, B16-F10
DETAILS: read-out: Activity
RECORDED ENDPOINT: viability at 72 h, 48 µM
Write the numeric value and append its unit.

Reported viability at 72 h, 48 µM for `COc1cc(/C=C/C(=O)NC[C@@H](O)c2ccc(O)cc2)ccc1O` was 97.2%

###

ASSAY NOTES: Cytotoxicity against mouse B16F10 cells assessed as cell viability at 6 uM after 72 hrs by MTT assay (reference value: 99.6 +/- 3.5%)
Format: cell-based, B16-F10
DETAILS: read-out: Activity
RECORDED ENDPOINT: viability at 72 h, 6 µM (%)
Give your result in % as a bare value.

Noted for `COc1cc(/C=C/C(=O)NC[C@@H](O)c2ccc(O)cc2)ccc1O` : its viability at 72 h, 6 µM reads 97.8

###

ASSAY NOTES: Cytotoxicity against mouse B16F10 cells assessed as cell viability at 96 uM after 72 hrs by MTT assay (reference value: 99.6 +/- 3.5%)
Format: cell-based, B16-F10
DETAILS: read-out: Activity
RECORDED ENDPOINT: viability at 72 h, 96 µM (%)
Numeric answer only, unit % assumed.

# viability at 72 h, 96 µM (compound: `COc1cc(/C=C/C(=O)NC[C@@H](O)c2ccc(O)cc2)ccc1O` ) is 96

###

ASSAY NOTES: Cytotoxicity against mouse B16F10 cells assessed as cell viability at 1.5 uM after 72 hrs by MTT assay (reference value: 99.6 +/- 3.5%)
Type: cell-based, B16-F10
DETAILS: read-out: Activity
RECORDED ENDPOINT: viability at 72 h, 1.5 µM (%)
Return type: number; implicit unit %.

Input `COc1cc(/C=C/C(=O)NC[C@@H](O)c2ccc(O)cc2)ccc1O` . Output viability at 72 h, 1.5 µM: 102

###

ASSAY NOTES: Cytotoxicity against mouse B16F10 cells assessed as cell viability at 3 uM after 72 hrs by MTT assay (reference value: 99.6 +/- 3.5%)
Assay type: cell-based, B16-F10
DETAILS: read-out: Activity
RECORDED ENDPOINT: viability at 72 h, 3 µM (%)
Please state the figure in %; there is no need to write the unit.

Measured viability at 72 h, 3 µM, `COc1cc(/C=C/C(=O)NC[C@@H](O)c2ccc(O)cc2)ccc1O` : 105

###

ASSAY NOTES: Cytotoxicity against mouse B16F10 cells assessed as cell viability at 12 uM after 72 hrs by MTT assay (reference value: 99.6 +/- 3.5%)
Format: cell-based, B16-F10
DETAILS: read-out: Activity
RECORDED ENDPOINT: viability at 72 h, 12 µM (%)
API: value field is a number in %; no unit string.

Looking up `COc1cc(/C=C/C(=O)NC[C@@H](O)c2ccc(O)cc2)ccc1O` , I see its viability at 72 h, 12 µM listed as 99.4
